- Tested on: HES
- protocol_text: Concentration required to inhibit HMG-CoA reductase by 50% was determined in HES 9 cell line
- Assay type: functional, cell-based
- test_context: Homo sapiens
Consider the cut-off 20 nM. If the recorded IC50 is strictly smaller, the label is True; if not, the label is False.

>>> category_label("CC[C@H](C)C(=O)O[C@H]1C[C@H](O)C[C@@H]2C=C[C@H](C)[C@H](CC[C@H](O)C[C@H](O)CC(=O)O)[C@@H]12")
"False"
>>> category_label("CC[C@H](C)C(=O)O[C@H]1C[C@@H](C)C=C2C=C[C@H](C)[C@H](CC[C@@H](O)C[C@@H](O)CC(=O)O)[C@H]21")
"True"
>>> category_label("CCC(C)(C)C(=O)O[C@H]1C[C@@H](C)C=C2C=C[C@H](C)[C@H](CC[C@@H](O)C[C@@H](O)CC(=O)O)[C@H]21")
"True"
>>> category_label("CC[C@H](C)C(=O)O[C@H]1C[C@H](O)C[C@@H]2C=C[C@H](C)[C@H](CCC3C[C@@H](O)CC(=O)O3)[C@@H]12 (stereo not given in full)")
"False"

Let's switch to this molecule now.
Lookup: Determine if `CC[C@H](C)C(=O)O[C@H]1C[C@@H](C)C=C2C=C[C@H](C)[C@H](CC[C@@H]3C[C@@H](O)CC(=O)O3)[C@H]21` shows IC50 strictly lower than 20 nM.
Found: True
